Test system: fli1:EGFP zebrafish embryos (intersegmental vessel growth)
Test: fli1:EGFP zebrafish embryo angiogenesis assay
Assay type: in vivo
Design: concentration or dose not given beside the values
Conditions: embryos alive after 24 hours of exposure
Description: […] To determine if the thalidomide analogs had any effect on angiogenesis, fli1:EGFP embryos (Lawson and Weinstein, Developmental Biology 2002, 248:307-318) were exposed to either vehicle or a compound of interest, over a range of concentrations and over a range of time points starting at 24 hpf. […] The embryos were imaged at 48 hpf (FIGS. 3A3L) and analyzed for both vessel formation and the extent of growth of the vasculature. […]
This section presents molecules with their documented fli1:EGFP angiogenesis n (survived/tested) values.
Recorded metric: fli1:EGFP angiogenesis n (survived/tested)

Molecule	Experimental result
O=C1CCC(N2C(=O)c3ccncc3C2=O)C(=O)N1 (centres unmarked) [Compound 58]	33/33
O=C1c2ccccc2CN1CC12CC3CC(CC(C3)C1)C2 [Compound 70]	8/10
O=C1c2ccccc2CN1C12CC3CC(CC1C3)C2 [Compound 73]	6/12
CC1(C)S[C@@H]2[C@H](N3C(=O)c4ccccc4C3=O)C(=O)N2[C@H]1C(=O)O [Compound 64]	8/15
N=C1N/C(=N\C2CCC(=O)NC2=O)c2ccccc21 (centres unmarked) [Compound 55]	6/10
FC(F)(F)c1ccc(/N=C2/c3ccccc3CN2c2ccc(C(F)(F)F)cn2)nc1 [Compound 66]	15/15
CC(=O)Oc1ccc2c(c1)C(=O)N(C1CCC(=O)NC1=O)C2=O (centres unmarked) [Compound 18]	24/43
O=C1c2ccccc2CN1C12CC3CC(CC(O)(C3)C1)C2 [Compound 86]	4/12
Nc1cccc2c1CN(C1CCC(=S)NC1=O)C2=S (centres unmarked) [Compound 32]	21/25
O=C1c2cccc([N+](=O)[O-])c2CN1c1nc2ccc(C(F)(F)F)cc2s1 [Compound 63]	6/23
O=C1c2cccc(O)c2C(=O)N1c1nc2ccc(C(F)(F)F)cc2s1 [Compound 61]	3/15
CC(N1Cc2ccccc2C1=S)C12CC3CC(CC(C3)C1)C2 (centres unmarked) [Compound 74]	9/15
O=C1c2cccc([N+](=O)[O-])c2CN1C12CC3CC(CC(C3)C1)C2 [Compound 76]	28/32
O=C1c2cccc([N+](=O)[O-])c2C(=O)N1C1CCC(=S)NC1=S (centres unmarked) [Compound 9]	14/21
O=C1NC(=S)CCC1N1C(=O)c2ccc(O)cc2C1=O (centres unmarked) [Compound 17]	26/50
O=C1CCC(N2C(=O)c3ccc(OCc4ccccc4)cc3C2=O)C(=O)N1 (centres unmarked) [Compound 20]	51/79
Nc1ccc2c(=O)n(C3CCC(=O)NC3=O)c(=O)oc2c1 (centres unmarked) [Compound 24]	13/25
Nc1cccc2c1CN(C1CCC(=S)NC1=O)C2=O (centres unmarked) [Compound 30]	4/8
O=C1CCC(N2Cc3ccccc3C2=O)C(=O)N1CSC(=S)NC1CCCCC1 (centres unmarked) [Compound 52]	6/7
O=C1CCC(N2Cc3ccc([N+](=O)[O-])cc3C2=O)C(=O)N1 (centres unmarked) [Compound 33]	15/21
O=C1CCC(N2Cc3ccccc3C2=O)C(=O)N1CSC(=S)N1CCCCC1 (centres unmarked) [Compound 53]	9/14
CC(=O)Oc1ccc2c(c1)C(=O)N(C1CCC(=S)NC1=O)C2=O (centres unmarked) [Compound 19]	13/51
O=C1c2ccccc2CN1c1nc2ccc(C(F)(F)F)cc2s1 [Compound 62]	18/20
Nc1ccc2c(c1)C(=O)N(C1CCC(=O)NC1=O)C2=O (centres unmarked) [Compound 11]	24/43
O=C1c2ccccc2CN1c1ccc(C(F)(F)F)cc1 [Compound 68]	22/34
CC(N1Cc2c(cccc2[N+](=O)[O-])C1=S)C12CC3CC(CC(C3)C1)C2 (centres unmarked) [Compound 89]	7/11
CC1(C)S[C@@H]2[C@H](N3Cc4ccccc4C3=O)C(=O)N2[C@H]1C(=O)O [Compound 65]	13/13
O=C1c2ccccc2C(=O)N1c1nc2ccc(C(F)(F)F)cc2s1 [Compound 59]	21/32
O=C1c2ccccc2CN1C12CC3CC(CC(C3)C1)C2 [Compound 69]	6/14
N=C1c2ccccc2C(=O)N1C1CCC(=O)NC1=O (centres unmarked) [Compound 56]	9/19
O=C1NC(=S)CCC1N1C(=O)c2cccc(O)c2C1=O (centres unmarked) [Compound 14]	7/23
Nc1cccc2c1CN(C13CC4CC(CC1C4)C3)C2=O [Compound 85]	7/20
